Numbers sourced from patent US20230104936A1.

- Test system: TFEB
- experiment_summary: TFEB nuclear translocation assay, HeLa wt cells
- Assay type: cell-based
- measurement_context: Homo sapiens, HeLa, 2 h, 2 hrs compound treatment, Table 1 does not say HeLa wt or TRPML1 KO
observable: AC50

Please review the following examples before continuing.
Request: Given the entry CN(C)S(=O)(=O)c1ccc(C(C)(C)Nc2ccccc2N2CCN(Cc3ccccc3)CC2)cc1 [Compound A-733] , what AC50 was observed with TFEB?
Response: 2.01 to 8 µM

Request: Requested read-out AC50, target or system TFEB, entry CCS(=O)(=O)c1ccc(S(=O)(=O)Nc2ccccc2N2CCN(C(=O)C(C)(C)C)CC2)cc1 [Compound A-351]
Response: ≥ 10 µM

Request: What value of AC50 on TFEB does CN(C)S(=O)(=O)c1ccc(S(=O)(=O)Nc2ccccc2N2CCC(c3ccc(Cl)cc3F)CC2)c(F)c1 [Compound A-149] have?
Response: ≤ 2 µM

Request: API: value(readout= AC50, system= TFEB, query= CC(c1cccc(F)c1N1CCC(COC(C)(C)C)CC1)S(=O)(=O)c1ccc(C(F)F)cc1 (single isomer, unassigned) [Compound A-976] )
Response: ≤ 2 µM

Request: // lookup AC50 | system=TFEB | key= CC(C)C(=O)N1CCN(c2ccccc2NS(=O)(=O)c2ccc(S(=O)(=O)N(C)C)cc2)CC1 [Compound A-322]
Response: 8.01 to 9.99 µM

Below are 2 compounds. Give each one its AC50.
1. CS(=O)(=O)c1ccc(S(=O)(=O)Nc2ccccc2N2CCC3(CC2)COc2cc(F)ccc23)cc1 [Compound A-319]
2. CN(C)S(=O)(=O)c1ccc(S(=O)(=O)Nc2cccc(F)c2N2CCC3(CCC(=O)N3)CC2)cc1 [Compound A-796]

Response:
["≤ 2 µM", "≥ 10 µM"]
